Recorded values, source patent US12410171B2.

Catalogue of compounds with associated percent degradation of TPM3-TRKA protein at 0.01 µM
# Target Entity: TPM3-TRKA fusion protein (Homo sapiens, UniProt P04629)
# Construct: The resulted chimeric proteins always retain the kinase domain of TRK proteins; TPM3 (fusion partner, N-terminal part of tropomyosin alpha-3, P06753); endogenous in cells; host or cells: KM12 colon cancer cells; the other entry of the earlier key: TPM3 (P06753, Tropomyosin alpha-3 chain)
# Sequence (P04629 with tags, fused parts or gaps): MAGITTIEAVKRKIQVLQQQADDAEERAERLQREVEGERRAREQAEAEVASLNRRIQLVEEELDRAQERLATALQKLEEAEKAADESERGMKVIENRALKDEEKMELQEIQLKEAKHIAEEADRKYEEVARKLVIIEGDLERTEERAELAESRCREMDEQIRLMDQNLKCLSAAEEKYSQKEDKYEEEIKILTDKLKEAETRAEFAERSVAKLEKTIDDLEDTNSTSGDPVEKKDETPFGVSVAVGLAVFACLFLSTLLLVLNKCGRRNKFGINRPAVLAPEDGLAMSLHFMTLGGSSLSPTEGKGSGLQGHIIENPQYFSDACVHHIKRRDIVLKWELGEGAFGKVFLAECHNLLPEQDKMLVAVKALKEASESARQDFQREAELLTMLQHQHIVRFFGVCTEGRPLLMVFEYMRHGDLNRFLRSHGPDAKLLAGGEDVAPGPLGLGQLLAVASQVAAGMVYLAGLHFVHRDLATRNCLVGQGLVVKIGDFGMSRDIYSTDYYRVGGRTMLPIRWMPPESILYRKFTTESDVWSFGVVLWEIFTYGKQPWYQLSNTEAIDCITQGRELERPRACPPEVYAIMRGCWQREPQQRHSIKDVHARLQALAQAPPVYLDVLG
# Assay Overview: TPM3-TRKA fusion protein levels in KM12 cells (Western blot)
# Type: cell-based
# Conditions: 16 h; TPM3-TRKA degradation in KM12 cells at 10 nM compound, category of percentage degradation; read-out: Degradation (at 10 nM)

Kindly note: TPM3-TRKA fusion protein (Homo sapiens, UniProt P04629), Cn1c(=O)n(C2CCC(=O)NC2=O)c2ccc(OCCN3CCN(c4cccc(-c5cnc6ccc(N7CCC[C@@H]7c7cccc(F)c7)nn56)n4)CC3)cc21 (some centres unmarked) , percent degradation of TPM3-TRKA protein at 0.01 µM value reported: > 80%

Kindly note: TPM3-TRKA fusion protein (Homo sapiens, UniProt P04629), O=C1CCC(N2C(=O)c3cccc(NCCCCCCCC(=O)N4CCN(c5ccc(C(=O)Nc6n[nH]c7ccc(Cc8cc(F)cc(F)c8)cc67)c(NC6CCOCC6)c5)CC4)c3C2=O)C(=O)N1 (centres unmarked) , percent degradation of TPM3-TRKA protein at 0.01 µM value reported: > 80%

Kindly note: TPM3-TRKA fusion protein (Homo sapiens, UniProt P04629), O=C1CCC(N2Cc3ccc(N4CC(CN5CCN(c6ccc(C(=O)Nc7n[nH]c8ccc(Cc9cc(F)cc(F)c9)cc78)c(NC7CCOCC7)c6)CC5)C4)cc3C2=O)C(=O)N1 (centres unmarked) , percent degradation of TPM3-TRKA protein at 0.01 µM value reported: > 80%

Kindly note: TPM3-TRKA fusion protein (Homo sapiens, UniProt P04629), O=C(CN1CCN(c2cccc(-c3cnc4ccc(N5CCC[C@@H]5c5cccc(F)c5)nn34)n2)CC1)NCCOCCOCCNc1cccc2c1C(=O)N(C1CCC(=O)NC1=O)C2=O (some centres unmarked) , percent degradation of TPM3-TRKA protein at 0.01 µM value reported: > 80%

Kindly note: TPM3-TRKA fusion protein (Homo sapiens, UniProt P04629), Cc1ncsc1-c1ccc(CNC(=O)[C@@H]2C[C@@H](O)CN2C(=O)[C@@H](NC(=O)CCCCC(=O)N2CCN(c3ccc(C(=O)Nc4n[nH]c5ccc(Cc6cc(F)cc(F)c6)cc45)c(NC4CCOCC4)c3)CC2)C(C)(C)C)cc1 , percent degradation of TPM3-TRKA protein at 0.01 µM value reported: 50 to 80%
